Each recorded value in this set is attributed to ChEMBL document CHEMBL4052682.

- TARGET_OR_SYSTEM: Interstitial collagenase (Homo sapiens) (UniProt P03956)
- Sequence (P03956 whole entry, the tested form may be a part): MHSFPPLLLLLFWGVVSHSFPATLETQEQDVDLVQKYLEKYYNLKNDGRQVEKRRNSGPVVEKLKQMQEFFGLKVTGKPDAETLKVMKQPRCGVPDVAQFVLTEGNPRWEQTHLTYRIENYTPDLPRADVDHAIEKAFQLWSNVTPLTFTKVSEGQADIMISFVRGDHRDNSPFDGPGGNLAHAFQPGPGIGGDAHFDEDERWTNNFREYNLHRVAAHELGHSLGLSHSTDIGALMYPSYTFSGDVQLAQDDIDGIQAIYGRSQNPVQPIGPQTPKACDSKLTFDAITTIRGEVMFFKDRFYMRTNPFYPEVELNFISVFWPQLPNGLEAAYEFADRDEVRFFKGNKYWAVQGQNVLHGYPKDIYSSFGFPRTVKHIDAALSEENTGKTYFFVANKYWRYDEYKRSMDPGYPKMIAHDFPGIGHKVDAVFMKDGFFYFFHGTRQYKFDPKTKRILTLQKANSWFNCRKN
- PROTOCOL_TEXT: Inhibition of human recombinant MMP-1 catalytic domain (100 to 268 residues) expressed in Escherichia coli using fluorogenic Mca-KPLGL-Dpa-AR-NH2 as substrate at 10 uM by fluorescence spectrophotometric analysis
The source made the active and inactive calls. The calls are words filed in the database; no cut-off is given here.
OBSERVATION_TYPE: inhibition

As a guide, the following entries are already answered.
{"MOLECULE": "O=C1COc2ccc(CNC(=O)c3nc4sc(C5CCCCC5)cc4c(=O)[nH]3)cc2N1", "RECORDED_MEASUREMENT": "inactive"}
{"MOLECULE": "O=C1COc2ccc(CNC(=O)c3nc4sc5c(c4c(=O)[nH]3)CCCCCC5)cc2N1", "RECORDED_MEASUREMENT": "inactive"}
{"MOLECULE": "O=C1COc2ccc(CNC(=O)c3nc4scc(CCc5ccccc5)c4c(=O)[nH]3)cc2N1", "RECORDED_MEASUREMENT": "inactive"}
{"MOLECULE": "O=C1COc2ccc(CNC(=O)c3nc4scc(C5CCCCC5)c4c(=O)[nH]3)cc2N1", "RECORDED_MEASUREMENT": "inactive"}

Now for the compound whose inhibition we want.
## Task Report inhibition from Interstitial collagenase (Homo sapiens) (UniProt P03956) testing of O=C1COc2ccc(CNC(=O)c3nc4scc(-c5ccc(C(F)(F)F)cc5)c4c(=O)[nH]3)cc2N1
## Result inactive
